Target: HLA-A2
Assay: Blue peptide (Cy5-labeled HBVc) kinetic and isotherm determination
Type: binding, human
Details: T2 (HLA-A2pos) vs C1R-A3 (HLA-A2neg) cells; isotherm titration 1 pM to 1 uM, 1h; n = 5; read-out: equilibrium dissociation constant KD for HLA-A2
measured-attribute: Kd (nM)
Please state the figure in nM; there is no need to write the unit.

Documented Kd of FLPSDC*-(Cy5)-FPSV [blue peptide] : 52.6
